The following compounds were reported with pIC50 values on Cytochrome P450 2C9 (Homo sapiens) in different studies.
pIC50: −log10 of the molar value.

Check out these entries, answers already filled in.
compound	target	pIC50
C[C@H](c1ccc(F)cc1)n1cnnc1CN1CCN(S(=O)(=O)c2cnc(N3CCN4C[C@H](O)C[C@H]4C3)s2)CC1	Cytochrome P450 2C9 (Homo sapiens)	< 5.00
O=C(c1cc(Cl)c(O)c(Cl)c1O)N1CCOc2ccccc21	Cytochrome P450 2C9 (Homo sapiens)	4.82
CCn1cc(-c2ccc([C@H](C)N3CC[C@](CC(C)(C)O)(c4ccccc4)OC3=O)cc2)ccc1=O	Cytochrome P450 2C9 (Homo sapiens)	< 4.52

We next turn to a different compound, shown below.
Entry `O=C(c1ccc(Nc2ccc(C(F)(F)F)nc2)nc1F)c1c[nH]c2ncnc(NC3CC3)c12` , Cytochrome P450 2C9 (Homo sapiens) data, pIC50 value: < 5.00
